- Target Entity: DNA gyrase (Escherichia coli, UniProt P0AES4+P0AES6)
- Experiment Summary: Compound evaluated in vitro for the ability to inhibit gyrase.
- Format: protein-complex assay
- Details: read-out: I50 (converted)
# IC50 annotations

Tell me IC50 reported for Nc1c(F)c(N2CC3CCCC2CN3)c(F)c2c1c(=O)c(C(=O)O)cn2C1CC1 (stereo not drawn)
2.23 µM

Tell me IC50 reported for Nc1c(F)c(N2C[C@H]3CC2CN3)c(F)c2c1c(=O)c(C(=O)O)cn2C1CC1
36.7 µM

Tell me IC50 reported for CCN[C@H]1C[C@H]2CC[C@@H](C1)N2c1c(F)cc2c(=O)c(C(=O)O)cn(C3CC3)c2c1F
15.1 µM

Tell me IC50 reported for CN1CC2CCC1CN2c1nc2c(cc1F)c(=O)c(C(=O)O)cn2C1CC1 (stereo not drawn)
14.8 µM

Tell me IC50 reported for CN1CC2C[C@@H]1CN2c1nc2c(cc1F)c(=O)c(C(=O)O)cn2C1CC1.Cl
9.62 µM

Tell me IC50 reported for CCN[C@H]1C[C@H]2CC[C@@H](C1)N2c1cc2c(cc1F)c(=O)c(C(=O)O)cn2C1CC1.F
41.7 µM

Tell me IC50 reported for NC1CCN(c2cc3c(cc2F)c(=O)c(C(=O)O)cn3C2CC2)CC1
2.32 µM

Tell me IC50 reported for O=C(O)c1cn(C2CC2)c2cc(N3CC4CCC3CN4)c(F)cc2c1=O (stereo not drawn)
4.2 µM

New cases:
Tell me IC50 reported for O=C(O)c1cn(C2CC2)c2cc(N3C[C@H]4CC3CN4)c(F)cc2c1=O
8.15 µM

Tell me IC50 reported for CCN[C@@H]1C[C@H]2CC[C@@H](C1)N2c1c(F)cc2c(=O)c(C(=O)O)cn(C3CC3)c2c1F
9.1 µM

Tell me IC50 reported for CN1CC2C[C@@H]1CN2c1c(F)cc2c(=O)c(C(=O)O)cn(C3CC3)c2c1F.Cl
7.28 µM

Tell me IC50 reported for O=C(O)c1cn(C2CC2)c2cc(N3CC4CCCC3CN4)c(F)cc2c1=O (stereo not drawn)
4.85 µM

Tell me IC50 reported for Cl.N[C@@H]1C[C@H]2CC[C@@H](C1)N2c1c(F)cc2c(=O)c(C(=O)O)cn(C3CC3)c2c1F
8.92 µM

Tell me IC50 reported for NC1CCN(c2c(F)cc3c(=O)c(C(=O)O)cn(C4CC4)c3c2F)CC1
< 1.38 µM

Tell me IC50 reported for N[C@H]1C[C@H]2CC[C@@H](C1)N2c1cc2c(cc1F)c(=O)c(C(=O)O)cn2C1CC1
8.08 µM

Tell me IC50 reported for CCN[C@@H]1C[C@H]2CC[C@@H](C1)N2c1cc2c(cc1F)c(=O)c(C(=O)O)cn2C1CC1
15.8 µM

Tell me IC50 reported for Nc1c(F)c(N2CC3CCC2CN3)c(F)c2c1c(=O)c(C(=O)O)cn2C1CC1 (stereo not drawn)
14.1 µM

Tell me IC50 reported for CCN[C@H]1C[C@H]2CC[C@@H](C1)N2c1nc2c(cc1F)c(=O)c(C(=O)O)cn2C1CC1
15.7 µM

Every entry's value here was drawn from ChEMBL document CHEMBL1125245.
